Assay: Pharmacokinetics and total colon distribution after oral administration
Assay type: in vivo
Details: male, C57BL/6, mouse, total colon; mice, Ex. 36 measured after oral 5 mg/kg of Ex. 47 (Na salt), 2 h; read-out: total colon level
observed.property: concentration at 2 h (ng/g)
Express your answer in ng/g, writing the number without its unit.

Query: What value of measured concentration at 2 h is listed for COc1cc(Nc2cc(Oc3ccc(NC(=O)Nc4cc(C(C)(C)C)cc(NS(C)(=O)=O)c4OC)c4ccccc34)ccn2)cc(OC)c1C(=O)NCCOCCOCCO ?
Result: 643

###

Please consider the recorded IC50 for p38 MAPKα (MAPK14) (Homo sapiens (Human), UniProt Q16539) in what follows.
Note: unit nM is implicit; provide only the numeric part.

Query: Given the molecule COc1cc(Nc2cc(Oc3ccc(NC(=O)Nc4cc(C(C)(C)C)cc(NS(C)(=O)=O)c4OC)c4ccccc34)ccn2)cc(OC)c1C(=O)NCCOCCOCCO [Example 36] , what is its reported IC50?
Result: 19

Query: Please report the recorded IC50 for COc1cc(Nc2cc(Oc3ccc(NC(=O)Nc4cc(C(C)(C)C)cc(NS(C)(=O)=O)c4OC)c4ccccc34)ccn2)cc(OC)c1C(=O)NCCOCCOCCOP(=O)(O)O [Example 47] .
Result: 4

Query: Can you look up the measured IC50 of COc1cc(Nc2cc(Oc3ccc(NC(=O)Nc4cc(C(C)(C)C)cc(NS(C)(=O)=O)c4OC)c4ccccc34)ccn2)ccc1C(=O)NCCC1CCN(C)CC1 [Example 14] for me?
Result: 10

// provenance: patent US10125100B2
